Below, each entry is listed alongside its reported pKd.
Molecular target: T1, extracellular domain of human BCMA (human, UniProt Q02223 1-54)
T1 construct: amine-linked to Octet AR2G tips; also called hsBCMA; BCMA (human)
T1 sequence: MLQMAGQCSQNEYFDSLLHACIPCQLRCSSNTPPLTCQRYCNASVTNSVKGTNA
Assay: Octet BLI; Fab 200 nM
pKd: −log10 of the molar value.

>  <binder>
AB200-R1a-Fab_VH51 (Fab, V domains shown) VH: QVQLVQSGAEVKKPGSSVKVSCKASGGTFSNYWMHWVRQAPGQGLEWMGATYRGHSDTNYNQKFKGRVTITADKSTSTAYMELSSLRSEDTAVYYCARGTIYHGFDVLDNWGQGTLVTVSS VL: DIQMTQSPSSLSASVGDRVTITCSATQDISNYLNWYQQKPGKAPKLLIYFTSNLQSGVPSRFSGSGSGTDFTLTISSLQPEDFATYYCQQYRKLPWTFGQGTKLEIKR

>  <pKd>
7.72

$$$$
>  <binder>
AB200-R1a-Fab_VH33 (Fab, V domains shown) VH: QVQLVQSGAEVKKPGSSVKVSCKASGGTFTNFWMHWVRQAPGQGLEWMGATYRGQSDTYYNQKFKGRVTITADKSTSTAYMELSSLRSEDTAVYYCARGAIYHGYDVLDNWGQGTLVTVSS VL: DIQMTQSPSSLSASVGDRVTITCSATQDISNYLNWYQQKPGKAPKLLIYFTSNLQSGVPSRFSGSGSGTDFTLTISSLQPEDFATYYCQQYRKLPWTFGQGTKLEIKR

>  <pKd>
8.84

$$$$
>  <binder>
AB200-R1a-Fab_VH20 (Fab, V domains shown) VH: QVQLVQSGAEVKKPGSSVKVSCKASGGTFSNYWMHWVRQAPGQGLEWMGATIRGHSQTYYNQKFQGRVTITADKSTSTAYMELSSLRSEDTAVYYCARGAIYHGYDVLDNWGQGTLVTVSS VL: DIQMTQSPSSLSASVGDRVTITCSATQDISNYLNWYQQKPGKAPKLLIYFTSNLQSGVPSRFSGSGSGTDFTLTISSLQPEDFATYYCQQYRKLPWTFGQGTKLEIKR

>  <pKd>
7.98

$$$$
>  <binder>
AB200-R1a-Fab_VH38 (Fab, V domains shown) VH: QVQLVQSGAEVKKPGSSVKVSCKASGGTFSNYWMHWVRQAPGQGLEWMGATYRGHSDTYFNQKFKGRVTITADKSTSTAYMELSSLRSEDTAVYYCARGAIFNGYDVLDNWGQGTLVTVSS VL: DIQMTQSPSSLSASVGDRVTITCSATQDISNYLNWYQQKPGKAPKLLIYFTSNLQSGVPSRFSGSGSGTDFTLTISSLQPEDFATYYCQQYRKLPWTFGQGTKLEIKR

>  <pKd>
8.39

$$$$
>  <binder>
AB200-R1a-Fab_VH44 (Fab, V domains shown) VH: QVQLVQSGAEVKKPGSSVKVSCKASGGTFSNYWMHWVRQAPGQGLEWMGGTYRGHSDTYYNQRFKGRVTITADKSTSTAYMELSSLRSEDTAVYYCARGAIYHGYDILDNWGQGTLVTVSS VL: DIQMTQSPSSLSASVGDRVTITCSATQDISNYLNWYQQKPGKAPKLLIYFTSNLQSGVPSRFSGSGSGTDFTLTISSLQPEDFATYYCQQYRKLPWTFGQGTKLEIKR

>  <pKd>
7.54

$$$$
>  <binder>
AB200-R1a-Fab_VH13 (Fab, V domains shown) VH: QVQLVQSGAEVKKPGSSVKVSCKASGGTFSNYWMHWVRQAPGQGLEWMGATYRGHSTTYYAQKYKGRVTITADKSTSTAYMELSSLRSEDTAVYYCARGAIYHGYDVLDNWGQGTLVTVSS VL: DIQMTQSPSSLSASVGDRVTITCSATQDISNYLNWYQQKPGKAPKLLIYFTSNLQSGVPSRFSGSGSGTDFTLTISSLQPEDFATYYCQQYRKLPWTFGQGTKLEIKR

>  <pKd>
8.27

$$$$
>  <binder>
AB200-R1a-Fab_VH52 (Fab, V domains shown) VH: QVQLVQSGAEVKKPGSSVKVSCKASGGSFSDYWMHWVRQAPGQGLEWMGATYRGHSTTYYNQKFKGRVTITADKSTSTAYMELSSLRSEDTAVYYCARGAIYHGYDVLDNWGQGTLVTVSS VL: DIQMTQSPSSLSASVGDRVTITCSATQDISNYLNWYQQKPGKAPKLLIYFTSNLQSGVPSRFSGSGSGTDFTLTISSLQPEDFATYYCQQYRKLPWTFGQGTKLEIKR

>  <pKd>
7.75

$$$$
>  <binder>
AB200-R1a-Fab_VH16 (Fab, V domains shown) VH: QVQLVQSGAEVKKPGSSVKVSCKASGGTFSTYWMHWVRQAPGQGLEWMGATYRIHSDTYYNQKFKGRVTITADESTSTAYMELSSLRSEDTAVYYCARGAIYHGYDVLDNWGQGTLVTVSS VL: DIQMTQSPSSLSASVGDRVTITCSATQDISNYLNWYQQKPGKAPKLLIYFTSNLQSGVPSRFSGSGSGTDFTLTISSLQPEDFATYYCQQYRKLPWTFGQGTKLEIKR

>  <pKd>
7.84

$$$$
>  <binder>
AB200-R1a-Fab_VH59 (Fab, V domains shown) VH: QVQLVQSGAEVKKPGSSVKVSCKATGGTFSNYAMHWVRQAPGQGLEWMGASYRGHSDTYYNQKFKGRVTITADKSTSTAYMELSSLRSEDTAVYYCARGAIYHGYDVLDNWGQGTLVTVSS VL: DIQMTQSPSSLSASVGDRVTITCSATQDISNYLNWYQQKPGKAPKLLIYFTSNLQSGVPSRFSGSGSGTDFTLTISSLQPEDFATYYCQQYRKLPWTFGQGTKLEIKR

>  <pKd>
7.58

$$$$
>  <binder>
AB200-R1a-Fab_VH1 (Fab, V domains shown) VH: QVQLVQSGAEVKKPGSSVKVSCKASGGTFSNYWMHWVRQAPGQGLEWMGATYRGHSETYYNEKFKGRVTITADKSTSTAYMELSSLRSEDTAVYYCARGAIYHGYDVLDDWGQGTLVTVSS VL: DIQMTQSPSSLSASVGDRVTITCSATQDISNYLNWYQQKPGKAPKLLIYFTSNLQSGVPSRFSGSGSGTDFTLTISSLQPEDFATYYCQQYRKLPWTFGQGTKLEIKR

>  <pKd>
7.68

$$$$
